These measurements were taken from ChEMBL document CHEMBL4251728.

Listed next: entries and their corresponding IC50.
biological target: Toll-like receptor 7 (Homo sapiens); assay: Antagonist activity at TLR7 in HEK cells assessed as decrease in R848-induced NF-kappaB activation incubated for 30 mins followed by R848 addition measured after 5 hrs by steady-Glo reagent based assay; format: cell-based
Sequence (Q9NYK1 whole entry): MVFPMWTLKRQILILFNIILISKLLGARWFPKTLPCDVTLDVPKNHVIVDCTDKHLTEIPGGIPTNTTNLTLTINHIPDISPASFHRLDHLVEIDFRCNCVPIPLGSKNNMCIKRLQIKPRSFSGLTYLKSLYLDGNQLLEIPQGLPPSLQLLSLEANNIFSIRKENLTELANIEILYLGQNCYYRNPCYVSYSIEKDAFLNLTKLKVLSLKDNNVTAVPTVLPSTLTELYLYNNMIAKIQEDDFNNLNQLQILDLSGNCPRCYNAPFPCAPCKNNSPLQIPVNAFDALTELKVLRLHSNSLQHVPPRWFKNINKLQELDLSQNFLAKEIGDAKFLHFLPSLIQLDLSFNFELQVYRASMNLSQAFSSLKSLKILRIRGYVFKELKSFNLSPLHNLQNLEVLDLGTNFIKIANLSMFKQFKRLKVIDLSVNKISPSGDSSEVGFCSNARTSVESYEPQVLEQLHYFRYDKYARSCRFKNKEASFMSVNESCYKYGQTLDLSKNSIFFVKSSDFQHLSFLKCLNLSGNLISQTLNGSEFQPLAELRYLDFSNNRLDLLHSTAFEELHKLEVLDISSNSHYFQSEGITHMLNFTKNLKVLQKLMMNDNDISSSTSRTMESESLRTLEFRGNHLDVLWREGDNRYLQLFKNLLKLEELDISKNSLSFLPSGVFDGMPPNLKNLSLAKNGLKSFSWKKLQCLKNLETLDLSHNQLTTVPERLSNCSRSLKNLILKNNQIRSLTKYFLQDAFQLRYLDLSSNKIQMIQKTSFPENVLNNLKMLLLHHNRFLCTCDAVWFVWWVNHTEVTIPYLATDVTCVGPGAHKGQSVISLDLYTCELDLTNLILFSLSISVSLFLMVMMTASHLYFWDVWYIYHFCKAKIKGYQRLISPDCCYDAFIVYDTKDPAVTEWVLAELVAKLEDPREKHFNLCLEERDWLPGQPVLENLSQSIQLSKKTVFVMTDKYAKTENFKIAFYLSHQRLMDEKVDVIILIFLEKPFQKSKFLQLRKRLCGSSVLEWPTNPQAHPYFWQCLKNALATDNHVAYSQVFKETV

C[C@@H]1C[C@H](N)C[C@H](c2ccc(C(F)(F)F)c3nccnc23)C1; < 1000 nM
C[C@@H]1C[C@@H](c2ccc(C(F)(F)F)c3ncccc23)CN(C(=O)CCn2cccn2)C1; > 20000 nM

Entry C[C@@H]1C[C@H](N)C[C@@H](c2ccc(C(F)(F)F)c3nccnc23)C1 has what IC50?
< 1000 nM
